The values you see were collected from ChEMBL document CHEMBL1201862.

# Test system: OVCAR-8
# Measurement Notes: NCI tumour cell line growth inhibition, 48 h
Calls of active or inactive are those of the source. No stated cut-off is given here; in the data, active = GI50 up to about 1.1 µM and inactive = higher.
Log the outcome using a class from yes (1) (active), no (0) (inactive)

Completed entries (count: 4):
Request: Field: outcome | Entry: COC(=O)c1cc2c3c(cc(NCCN)c2[nH]1)N(C(=O)c1cc2cc(OC)c(OC)c(OC)c2[nH]1)CC3CCl (stereo not drawn)
Result: yes (1)

Request: Also "CNc1cc(OCc2ccccc2)c(OC)cc1C(=O)N1CCC[C@H]1CO" , if possible.
Result: no (0)

Request: Also "CCOC(=O)c1cc2cc([N+](=O)[O-])ccc2oc1=O" , if possible.
Result: no (0)

Request: Also "Nc1cc(N2CCCC2)nc(=O)n1Cc1ccccc1" , if possible.
Result: no (0)

Next:
Request: Field: outcome | Entry: "COP(=N[Si](C)(C)C)(OC)OC"
Result: no (0)

Request: Also "CCOC(=O)c1nc2ccc(C(F)(F)F)cc2nc1NCc1ccc(OC)c(OC)c1" , if possible.
Result: no (0)

Request: Also CCCCCC[C@H]1CC(=O)C2CCCC[C@@]23CC[C@H](CCl)N13.CCCCCC[C@H]1CC(=O)C2CCCC[C@@]23C[C@H](Cl)CN13 (stereo partly drawn) , if possible.
Result: no (0)

Request: Also "N#CCCN(CCC#N)c1ccc(/C=C2\N=C(COc3ccc(Cl)cc3Cl)OC2=O)cc1" , if possible.
Result: no (0)

====

# System: SK-OV-3
# Measurement Notes: NCI tumour cell line growth inhibition, 48 h
The source made the active and inactive calls. Cut-off read from the data, not from the text of the source: active = GI50 up to about 1.1 µM and inactive = higher. Residues, ends and D or L forms follow the SMILES beside them. *: point of attachment. Ethyl(2-NMe3+) = C[N+](C)(C)CC*; Boc = CC(C)(C)OC(=O)*
Log the outcome using a class from true for active, false for inactive

Completed entries (count: 6):
Request: Field: outcome | Entry: "COc1cc(Br)c(/C=N\c2cccc3ccc(OS(=O)(=O)c4ccc([N+](=O)[O-])cc4)cc23)cc1OC"
Result: false

Request: Also CCC(C)CNC1=C(NC(C)=O)C(=O)c2ccccc2C1=O (stereo not drawn) , if possible.
Result: false

Request: Also CC1=NN(c2ccccc2Cl)C2(C1)SCC(=O)N2c1nc2ccccc2s1 (stereo not drawn) , if possible.
Result: false

Request: Also "c1ccc(-c2c[nH]c(SC(c3ccccc3)c3ccccc3)n2)cc1" , if possible.
Result: false

Request: Also "CC(=O)Nc1ccc2nc(-c3cccc(Cl)c3)cc(O)c2c1" , if possible.
Result: true

Request: Also "O=C(O)c1cccc(SSc2cccc(C(=O)O)c2)c1" , if possible.
Result: false

Next:
Request: Field: outcome | Entry: CC(NC(=O)C(Cc1ccc(OCC[N+](C)(C)C)cc1)NC(=O)OC(C)(C)C)C(=O)NC(Cc1ccccc1)C(=O)NCC(N)=O (stereo not drawn) (Boc-Y(Ethyl(2-NMe3+))AFG-NH2; configuration not given here)
Result: false

Request: Also CC[C@@]1(O)C[C@H](OC2CC(N(C)C)C(O)C(C)O2)c2c(cc3c(c2O)C(=O)c2c(O)ccc(O)c2C3=O)[C@H]1C(=O)OC (stereo partly drawn) , if possible.
Result: true

====

# System: OVCAR-3
# Measurement Notes: NCI tumour cell line growth inhibition, 48 h
Active and inactive are the calls of the source. Rule as the data show it: active = GI50 up to about 1.1 µM and inactive = higher.
Log the outcome using a class from active, inactive

Completed entries (count: 10):
Request: Field: outcome | Entry: "O=C(O)c1cn2c3c(cc(N4CCN(CCO)CC4)cc3c1=O)SCC2"
Result: inactive

Request: Also COC1=C(C)C(=O)c2c(c(COC(N)=O)c3n2CC2C3N2C)C1=O (stereo not drawn) , if possible.
Result: active

Request: Also CCCCCCCCC(=O)N(C)C1C2CN3CCC(O2)C13 (stereo not drawn) , if possible.
Result: inactive

Request: Also "NC(=O)NC(=O)c1cccc(NC(=O)CBr)c1" , if possible.
Result: active

Request: Also "O=[N+]([O-])/C(Cl)=C(\Nc1ccccc1)C(Cl)=C(Cl)Cl" , if possible.
Result: inactive

Request: Also OCC(Cn1cncn1)(c1ccc(F)cc1F)n1cncn1 (stereo not drawn) , if possible.
Result: inactive

Request: Also "N#Cc1ccccc1/C=N/O" , if possible.
Result: inactive

Request: Also "Cc1cc(S(N)(=O)=O)c(SCc2nc(N)nc(N(C)C)n2)cc1Cl" , if possible.
Result: inactive

Request: Also N#Cc1ccc(-c2ccc(Cl)cc2)n(C2OC(CO)C(O)C(O)C2O)c1=S (stereo not drawn) , if possible.
Result: inactive

Request: Also "CCOc1cc2c(cc1O)C(=O)C[C@@H]1[C@@H]2CC[C@]2(C)[C@@H](O)CC[C@@H]12" , if possible.
Result: active

Next:
Request: Field: outcome | Entry: "CN(C)c1nnnn1-c1c(N)n(C)c(=O)n(C)c1=O"
Result: inactive

Request: Also COc1ccc(C(=O)C(C(=O)CCC(=O)Nc2ccc(C)c(C)c2)c2ccc(OC)cc2)cc1 (stereo not drawn) , if possible.
Result: inactive

Request: Also "O=C(OCc1ccccc1C1CSCSC1)c1cc(C(=O)OCc2ccccc2C2CSCSC2)c(C(=O)OCc2ccccc2C2CSCSC2)cc1C(=O)OCc1ccccc1C1CSCSC1" , if possible.
Result: inactive

Request: Also "Nc1ccc2c(=S)c3ccccc3[nH]c2c1" , if possible.
Result: inactive

Request: Also "N#CSc1ccc(S(N)(=O)=O)cc1" , if possible.
Result: inactive

Request: Also "C=Cc1nc2c(Cl)ncnc2n1Cc1ccccc1" , if possible.
Result: inactive

Request: Also "COC(=O)c1c2c(cc3c1CC1(C3)Cc3cc4c(c(C(=O)OC)c3C1)CCCC4)CCCC2" , if possible.
Result: inactive

Request: Also C[C@@H]1C[C@]2(C[C@@H](C)C3[C@@H](CC4(C)[C@@H]5CCC6C(C)(C)OC(=O)C=C[C@]67C[C@@]5(CC[C@]34C)OO7)O2)OC1=O (stereo partly drawn) , if possible.
Result: inactive

Request: Also "CCOC(=O)[C@H]1Nc2ccc(Cl)cc2[C@H]2c3ccccc3O[C@H]21" , if possible.
Result: inactive

Request: Also CC(O)C(C(=O)O)N(CC1(O)OCC(O)C(O)C1O)N=O (stereo not drawn) , if possible.
Result: inactive

Request: Also "O=C(NC(=S)Nc1ccc([N+](=O)[O-])cc1)c1ccc2c(c1)Sc1ccccc1O2" , if possible.
Result: inactive

Request: Also "CC(C)(C)c1ccc(-c2nc3ccc([N+](=O)[O-])cc3c(=O)o2)cc1" , if possible.
Result: inactive

Request: Also "O=c1oc2ccc3ccccc3c2cc1-c1nc2ccc([N+](=O)[O-])cc2o1" , if possible.
Result: inactive

Request: Also O=S(=O)(/N=C(\NO)Nc1ccc(Cl)cc1)C1CC=C(c2ccon2)S1 (stereo not drawn) , if possible.
Result: inactive

Request: Also Cc1cccc(C(O)c2ccccn2)c1O (stereo not drawn) , if possible.
Result: inactive

Request: Also "NCCCNCc1c2ccccc2c(CNCCCN)c2ccccc12" , if possible.
Result: inactive

====

# System: MDA-MB-435
# Measurement Notes: NCI tumour cell line growth inhibition, 48 h
The source made the active and inactive calls. No stated cut-off is given here; in the data, active = GI50 up to about 1.1 µM and inactive = higher. Square brackets hold non-standard residues; d marks the D form. Peptide text beside a SMILES is read from it. ξ: configuration not given here. ξ2Thi = NC(Cc1cccs1)C(=O)O; ξR = N=C(N)NCCCC(N)C(=O)O; ξI = CCC(C)C(N)C(=O)O; ξL = CC(C)CC(N)C(=O)O; ξK = NCCCCC(N)C(=O)O; ξT = CC(O)C(N)C(=O)O; ξA = CC(N)C(=O)O
I'd appreciate it if you could supply GI50 values for the items below.

Request: I am curious: what GI50 value has been reported for "COc1ccc(-n2sc3ncc([N+](=O)[O-])cc3c2=O)cc1" ?
Result: > 100 µM (inactive)

Request: Also CCC(C)C(NC(=O)C(Cc1cccs1)NC(=O)C(CC(C)C)NC(=O)C(CC(C)C)NC(=O)C(CCCCN)NC(=O)C(CCCN=C(N)N)NC(=O)[C@H](Cc1ccc(O)cc1)NC(=O)C(NC(=O)C(C)NC(=O)C(N)CC(C)C)C(C)O)C(=O)NC(CC(C)C)C(N)=O (stereo partly drawn) (H-[ξL][ξA][ξT]Y[ξR][ξK][ξL][ξL][ξ2Thi][ξI][ξL]-NH2) , if possible.
Result: > 50 µM (inactive)

Next:
Request: I am curious: what GI50 value has been reported for "O=[As](O)(O)c1ccc2nc3cc([As](=O)(O)O)ccc3nc2c1" ?
Result: > 100 µM (inactive)

====

# Tested on: SK-MEL-28
# Measurement Notes: NCI tumour cell line growth inhibition, 48 h
The source made the active and inactive calls. No stated cut-off is given here; in the data, active = GI50 up to about 1.1 µM and inactive = higher.
Endpoint Name: GI50

Answer for every listed entry: what is its GI50? The entries follow.
1. COC(=O)[C@H](Cc1ccccc1)NC(=O)c1ccc(CNC(=O)/C=C/c2csc(-c3ccccc3)n2)cc1
2. O=C1[C@H]2ON(c3ccccc3)C(c3ccccc3Cl)[C@H]2C(=O)N1c1ccc(Cc2ccc(N3C(=O)[C@@H]4ON(c5ccccc5)C(c5ccccc5Cl)[C@@H]4C3=O)cc2)cc1 (some centres undefined)
3. CS(=O)(=O)N1CC(CI)c2ccc(O)cc21 (centres undefined)
4. COC(=O)/C=C1/OC(c2ccccc2)=C(C)C1=O

Result:
1: 3.18 µM (inactive); 2: > 100 µM (inactive); 3: 3.23 µM (inactive); 4: 16.8 µM (inactive)
